src = patent US7816371B2

Item-by-item account of IC50
- SYSTEM TESTED: P2X7 receptor (Homo sapiens)
- Sequence (Q99572 whole entry): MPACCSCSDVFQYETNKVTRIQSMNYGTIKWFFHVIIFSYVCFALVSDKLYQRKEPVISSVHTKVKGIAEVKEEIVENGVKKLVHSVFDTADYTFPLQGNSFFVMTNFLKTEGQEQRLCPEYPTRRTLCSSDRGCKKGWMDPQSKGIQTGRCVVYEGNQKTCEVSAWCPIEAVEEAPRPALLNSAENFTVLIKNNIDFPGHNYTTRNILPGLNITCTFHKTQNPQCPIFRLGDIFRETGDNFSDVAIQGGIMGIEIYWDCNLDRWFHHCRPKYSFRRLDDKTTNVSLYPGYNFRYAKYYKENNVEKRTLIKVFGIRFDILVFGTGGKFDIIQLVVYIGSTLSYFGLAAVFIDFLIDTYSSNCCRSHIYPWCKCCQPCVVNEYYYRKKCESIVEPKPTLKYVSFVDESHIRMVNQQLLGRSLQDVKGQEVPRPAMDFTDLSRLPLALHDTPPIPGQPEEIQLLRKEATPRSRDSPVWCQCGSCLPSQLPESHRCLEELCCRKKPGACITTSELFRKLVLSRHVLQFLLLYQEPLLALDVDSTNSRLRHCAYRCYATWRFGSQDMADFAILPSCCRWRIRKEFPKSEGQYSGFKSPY
- PROTOCOL: IL-1β release assay in differentiated THP-1 cells stimulated with BzATP (Example 9); % inhibition and IC50
- ASSAY CONDITIONS: THP-1 cells differentiated with LPS and IFN-γ, 30 min pretreatment, BzATP 250 uM, IL-1β by ELISA

>  <COMPOUND>
COc1cccc(CC(=O)Nc2cccc3c(=O)n(CCO)ccc23)c1 [Compound 75]

>  <SYSTEM TESTED>
P2X7 receptor (Homo sapiens)

>  <IC50>
> 1000 nM

$$$$
>  <COMPOUND>
C[C@H](C(N)=O)n1ccc2c(NC(=O)c3cccc4ncccc34)cccc2c1=O [Compound 272]

>  <SYSTEM TESTED>
P2X7 receptor (Homo sapiens)

>  <IC50>
> 1000 nM

$$$$
>  <COMPOUND>
O=C(Cc1ccccc1)Nc1cccc2c(=O)n(CCO)ccc12 [Compound 76]

>  <SYSTEM TESTED>
P2X7 receptor (Homo sapiens)

>  <IC50>
> 1000 nM

$$$$
